# System: OVCAR-3
# assay.comment: NCI tumour cell line growth inhibition, 48 h
Calls of active or inactive are those of the source. Rule as the data show it: active = GI50 up to about 1.1 µM and inactive = higher.
readout.name: GI50

Use these answered entries as a reference point.
>>> experimental_value("CN(C)CC1CCCC1=O (stereo not drawn)")
"1.51 µM (inactive)"
>>> experimental_value("CN(C)/N=C(/c1nc2ccc(Cl)cc2nc1O)C(O)c1ccc(C(O)/C(=N\\N(C)C)c2nc3ccc(Cl)cc3nc2O)cc1 (stereo not drawn)")
"> 100 µM (inactive)"

**Q:** Which GI50 is listed for O=C1/C(=C/c2ccc(Oc3ccccc3)cc2)N=C(c2ccccc2)N1c1ccc(S(=O)(=O)Nc2nccs2)cc1 ?
**A:** 17.3 µM (inactive)

* * *

molecules and their reported GI50
# System: HOP-62
# assay.comment: NCI tumour cell line growth inhibition, 48 h
Calls of active or inactive are those of the source. Rule as the data show it: active = GI50 up to about 1.1 µM and inactive = higher.

Use these answered entries as a reference point.
>>> experimental_value("CC1=NC(=Cc2cccc(Cl)c2)C(=O)N1n1c(-c2ccccc2)nc2ccccc2c1=O")
"24.5 µM (inactive)"
>>> experimental_value("O=C(Nc1ccc2[nH]c(C(=O)N3CC(CCl)c4ccc([N+](=O)[O-])cc43)cc2c1)c1cc2ccccc2o1 (configuration not stated)")
"> 1100 µM (inactive)"
>>> experimental_value("C/C(=N\\O)c1ccc2cc(Br)c3ccccc3c2c1")
"20.2 µM (inactive)"
>>> experimental_value("COc1cc(-c2oc3c(OC)cc(OC)c(O)c3c(=O)c2OC)cc(OC)c1OC")
"2.06 µM (inactive)"
>>> experimental_value("N#Cc1sc2c(c1OC(=O)c1ccc(Cl)cc1)c(=O)n(-c1ccccc1)c(=S)n2-c1ccccc1")
"27.7 µM (inactive)"

**Q:** Which GI50 is listed for COc1cc(C2c3cc4c(cc3OC(NNC(N)=O)C2C)OCO4)cc(OC)c1OC (configuration not stated) ?
**A:** 0.118 µM (active)

**Q:** Which GI50 is listed for CCOC(=O)CC1COc2ccc3c(c21)OCO3 (configuration not stated) ?
**A:** > 100 µM (inactive)

**Q:** Which GI50 is listed for O=c1ccn(CC2(CO)CCC2)c(=O)[nH]1 ?
**A:** > 100 µM (inactive)

**Q:** Which GI50 is listed for COc1cc2c(cc1O)CC1c3c(cc(O)c(OC)c3-2)CCN1C (configuration not stated) ?
**A:** > 100 µM (inactive)

**Q:** Which GI50 is listed for CC[C@@]12C=CC(=S)N(CCSc3ccccc3)[C@@H]1c1c(n(S(=O)(=O)c3ccc(OC)cc3)c3ccccc13)CC2 ?
**A:** > 100 µM (inactive)

* * *

# System: PC-3
# assay.comment: NCI tumour cell line growth inhibition, 48 h
Activity calls are given as the source filed them. Cut-off read from the data, not from the text of the source: active = GI50 up to about 1.1 µM and inactive = higher.
readout.name: GI50

>>> experimental_value("CC1CC(=O)Nc2cc(Cl)ccc2N1C(=O)C1CC1 (stereo not given)")
"> 100 µM (inactive)"

// next entry
**Q:** Please provide the recorded GI50 for CN(C)c1ccc(C2CC(=O)CC(c3ccc(N(C)C)cc3)C23C(=O)NC(=S)NC3=O)cc1 (stereo not given) , tested on PC-3.
**A:** > 100 µM (inactive)

* * *

# Tested on: HCT-15
Hi! Just check whether GI50 is below 9 µM. Below gives 1 (yes), equal or above gives 0 (no).

>>> class_name("CCCCC[C@H]1CC=CC(=O)O1")
"1 (yes)"

**Q:** Is the reported GI50 for NCCNC(=O)c1cccc2cc3ccccc3nc12 strictly below 9 µM?
**A:** 1 (yes)

**Q:** Is the reported GI50 for CC1(c2nc3ccccc3[nH]2)CCC(C#N)C(C)(C)O1 (stereo not drawn) strictly below 9 µM?
**A:** 0 (no)

**Q:** Is the reported GI50 for COc1ccc(C(=O)c2cc(OC)c(OC)c(OC)c2)cc1OC strictly below 9 µM?
**A:** 1 (yes)

**Q:** Is the reported GI50 for CC12CCC(C(Nc3cc(C(F)(F)F)cc(C(F)(F)F)c3)C1=O)C2(C)C (stereo not drawn) strictly below 9 µM?
**A:** 0 (no)

**Q:** Is the reported GI50 for COc1ccc(/C=N/n2c(C)n[nH]c2=O)c(OC)c1 strictly below 9 µM?
**A:** 0 (no)

**Q:** Is the reported GI50 for COC(=O)[C@]12CC[C@H]3CC[C@H]([C@H]31)[C@H](c1ccccc1)N2 strictly below 9 µM?
**A:** 0 (no)

**Q:** Is the reported GI50 for NC(=O)CN1CCN(c2nc(N3CCCC3)c3nc(Cl)c(NCc4ccccc4)nc3n2)CC1 strictly below 9 µM?
**A:** 1 (yes)

**Q:** Is the reported GI50 for COc1ccc(C(=O)/C=C/c2cccnc2)cc1OC strictly below 9 µM?
**A:** 0 (no)

**Q:** Is the reported GI50 for CC(C)OP(=O)(CN(C)/C(F)=N\C(F)(F)F)OC(C)C strictly below 9 µM?
**A:** 0 (no)

**Q:** Is the reported GI50 for COC(=O)/C=C(\C)CC/C=C(\C)CCC1OC1(C)C (stereo not drawn) strictly below 9 µM?
**A:** 0 (no)

**Q:** Is the reported GI50 for COc1ccc(C(=O)N2CCN(c3ccc4c(c3)OCC(=O)N4)CC2)cc1OC strictly below 9 µM?
**A:** 0 (no)

**Q:** Is the reported GI50 for CC(=O)OC1/C=C(\C)C(OC(C)=O)C/C=C(/C)CCC2C(/C=C/C1=O)C2(C)C (stereo not drawn) strictly below 9 µM?
**A:** 0 (no)

**Q:** Is the reported GI50 for Cc1ccc2nc3c(=O)[nH]c(=O)nc-3n(C)c2c1C strictly below 9 µM?
**A:** 0 (no)

**Q:** Is the reported GI50 for O=C1NC(=S)NC(=O)C1C(c1ccccc1[N+](=O)[O-])C1C(=O)NC(=S)NC1=O.c1ccncc1 strictly below 9 µM?
**A:** 0 (no)

**Q:** Is the reported GI50 for CCN(CC)CCOc1ccc(N2C(=O)c3cccc4cc([N+](=O)[O-])cc(c34)C2=O)cc1 strictly below 9 µM?
**A:** 1 (yes)

**Q:** Is the reported GI50 for COC(=O)c1ccccc1/C=C1\Cc2ccc3c(c2C1=O)CCCC3 strictly below 9 µM?
**A:** 0 (no)

**Q:** Is the reported GI50 for COc1cc(C)cc(C(=O)/C=C/c2ccccc2)c1O strictly below 9 µM?
**A:** 0 (no)

**Q:** Is the reported GI50 for C[C@H]1CCC/C=C/[C@@H]2C[C@H](OC3OC(CO)C(O)C(O)C3O)C[C@H]2[C@H](O)/C=C/C(=O)O1 (stereo partly drawn) strictly below 9 µM?
**A:** 0 (no)

**Q:** Is the reported GI50 for O=C1C(=O)N(c2ccc(Cl)cc2)C(=O)/C(=N/c2cccc3c(=O)[nH][nH]c(=O)c23)C1c1nc2ccccc2o1 (stereo not drawn) strictly below 9 µM?
**A:** 0 (no)

**Q:** Is the reported GI50 for N#CC1(c2nc3ccccc3o2)C(=O)C(=O)N(C2C3CC4CC(C3)CC2C4)C(=O)C1=O (stereo not drawn) strictly below 9 µM?
**A:** 0 (no)

**Q:** Is the reported GI50 for C=C1C(=O)O[C@@H]2C[C@@]3(C)[C@H](O)CCC(=C)[C@@H]3C[C@H]12 strictly below 9 µM?
**A:** 0 (no)

**Q:** Is the reported GI50 for CSC(=N)N1N=C2/C(=C/c3ccccc3)CCC[C@H]2[C@H]1c1ccccc1 strictly below 9 µM?
**A:** 1 (yes)

* * *

compounds and their reported GI50
# Tested on: RPMI-8226
# assay.comment: NCI tumour cell line growth inhibition, 48 h
Calls of active or inactive are those of the source. No stated cut-off is given here; in the data, active = GI50 up to about 1.1 µM and inactive = higher.

Use these answered entries as a reference point.
>>> experimental_value("NC(C(=O)O)c1ccc(C(=O)O)cc1 (stereo unspecified)")
"> 100 µM (inactive)"
>>> experimental_value("C=C1C(=O)O[C@@H]2C[C@@]3(C)[C@H](O)CCC(=C)[C@@H]3C[C@H]12")
"3.46 µM (inactive)"
>>> experimental_value("C#CCN(Cc1ccc2nc(-c3ccccc3)c(Cl)nc2c1)c1cc(OC)c(OC)c(OC)c1")
"16.1 µM (inactive)"
>>> experimental_value("O=c1[nH]nc(-c2ccccc2)n1/N=C/c1ccccc1Cl")
"21.1 µM (inactive)"
>>> experimental_value("CCOC(=O)C1S/C(=N\\c2ccccc2)N=C1C (stereo unspecified)")
"51.2 µM (inactive)"
>>> experimental_value("C=C1[C@@H](OC(C)=O)[C@H]2[C@@H](OC(C)=O)[C@@](C)(OC(C)=O)C[C@]2(OC(C)=O)C(=O)[C@@H](C)/C=C/C(C)(C)C(=O)C[C@H]1OC(C)=O")
"> 100 µM (inactive)"
>>> experimental_value("O=C(Nc1ccc2[nH]c(C(=O)N3CC(CCl)c4ccc([N+](=O)[O-])cc43)cc2c1)c1cc2ccccc2o1 (stereo unspecified)")
"> 1100 µM (inactive)"
>>> experimental_value("C/C(CC/C(C)=N/O)=N\\O")
"> 100 µM (inactive)"

**Q:** Which GI50 is listed for COc1ccc([C@@]23CCC(=O)C[C@@H]2N(C)CC3)cc1OC ?
**A:** > 100 µM (inactive)

**Q:** Which GI50 is listed for CSc1nc2nc(C)c(C)nc2c(=O)[nH]1 ?
**A:** > 100 µM (inactive)

**Q:** Which GI50 is listed for COc1ccc(OC)c(/C=C/NC=O)c1 ?
**A:** > 100 µM (inactive)

**Q:** Which GI50 is listed for C=C(C)C(=O)OC1C[C@H](COC(C)=O)C2CC=C(CO)C2C2OC(=O)C(=C)[C@H]12 (stereo partly specified) ?
**A:** 12.4 µM (inactive)

**Q:** Which GI50 is listed for COC(=O)/C(=N/Nc1cccc(Cl)c1)C(C(=O)C(=O)Nc1cccc(Cl)c1C)c1nc2ccccc2nc1C (stereo unspecified) ?
**A:** 88.5 µM (inactive)

**Q:** Which GI50 is listed for COC1C(OC(=O)/C=C/C=C/C=C/C=C\C(=O)O)CCC2(CO2)C1C1(C)OC1CC=C(C)C (stereo unspecified) ?
**A:** > 100 µM (inactive)

**Q:** Which GI50 is listed for CN1CCN(C2=C(Cl)C3(OCCS3)C(F)(F)C2(F)F)CC1 (stereo unspecified) ?
**A:** 44.5 µM (inactive)

**Q:** Which GI50 is listed for N#Cc1sc2c(c1OC(=O)c1ccc(Cl)cc1)c(=O)n(-c1ccccc1)c(=S)n2-c1ccccc1 ?
**A:** 17.7 µM (inactive)

These measurements were taken from ChEMBL document CHEMBL1201862.
